Tested on: UACC-257 melanoma
Assay: NCI-60 one-dose screen, 48 h (100 = growth as untreated, 0 = no growth, -100 = all killed)
Conditions: 10 µM unless noted
Compounds without any hit were thinned out: in the full panel of roughly 83,000, 20% have a hit.
Please mark true (1) if the recorded growth is equal to or greater than 60%, and false (0) if it falls below.

Cc1ccc(C)c2c1C(=O)OC2=O :: true (1)
Cc1nc(Nc2ccc(NC(=S)Nc3ccccc3)cc2)nc2nc(SCc3ccccc3)[nH]c(=O)c12 :: true (1)
Nc1ccn(C2OC(F)(CO)C(O)C2F)c(=O)n1 (stereo unspecified) :: true (1)
O=C(NCc1cn(Cc2cccc(Oc3ccccc3)c2)nn1)c1cccnc1NCc1ccc(Cl)cc1 :: false (0)
COc1ccc(-c2cc(-c3ccc(Nc4nc(Nc5ccccc5)nc(Nc5ccc(Cl)cc5)n4)cc3)nc(N)n2)cc1 :: true (1)
CN1CCN(C2=C(Cl)C(=O)c3ccccc3C2=O)CC1 :: false (0)
CC(C)(C)OC(=O)N1Cc2cc3ccccc3nc2C1CO (stereo unspecified) :: false (0)
Nc1c(-c2nc3ccc(Br)cc3c(=O)[nH]2)nnn1-c1ccccc1 :: true (1)
Cc1ccccc1NC(=O)CN(C)C :: true (1)
Clc1ccc2[nH]c3c(NCCCN4CCOCC4)ncnc3c2c1 :: true (1)
NS(=O)(=O)Oc1ccc(-c2sc3cc(O)ccc3c2C(=O)c2ccc(OCCN3CCCCC3)cc2)cc1 :: false (0)
O=[N+]([O-])c1cccc(/C=C/c2ccccn2)c1 :: true (1)
CCCCCCNc1cc(C)nc2ccc(OC)cc12 :: true (1)
C=C(C)[C@@H]1CC[C@]2(CN)CC[C@]3(C)[C@H](CC[C@@H]4[C@@]5(C)CCC(N)[C@@](C)(CO)[C@@H]5CC[C@]43C)[C@@H]12 (stereo partly specified) :: false (0)
Oc1ccccc1-c1nc2ccccn2c1NCCN1CCOCC1 :: true (1)
COC(=O)CNC(=O)C(=O)c1c(O)c(O)c(C(C)C)c2cc(C)c(-c3c(C)cc4c(C(C)C)c(O)c(O)c(C(=O)C(=O)NCC(=O)OC)c4c3O)c(O)c12 :: false (0)
CC1(C)N=C(N)N=C(N)N1c1cccc(CN)c1 :: true (1)
CCOC(=O)N1CCc2c(sc3c2C(=O)N[C@H](c2ccc(OC)cc2)N3)C1 :: true (1)
CC1(C)CC(=O)c2c(ccc(C(=O)C[C@H](N)CO)c2N)O1 :: false (0)
